Listed here: items and their measured pIC50.
- assayed_system: PD-1/PD-L1 (Homo sapiens, UniProt Q9NZQ7)
- Sequence (Q9NZQ7 19-238 limits assumed): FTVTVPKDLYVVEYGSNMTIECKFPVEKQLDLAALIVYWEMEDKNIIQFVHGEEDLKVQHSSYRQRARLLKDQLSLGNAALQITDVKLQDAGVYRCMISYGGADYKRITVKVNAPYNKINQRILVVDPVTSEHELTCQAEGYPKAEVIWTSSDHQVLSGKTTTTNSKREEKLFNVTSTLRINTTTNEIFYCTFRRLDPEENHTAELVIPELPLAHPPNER
- procedure_summary: TR-FRET PD-1/PD-L1 binding inhibition at the molecular level (free proteins)
- condition: Tag1-PD-L1 and Tag2-PD-1 proteins, twelve concentrations from 200 nM, 2 hours at room temperature, read-out: FRET assay (IC50)
pIC50: −log10 of the molar value.

O=C(Nc1cccc(-c2cccc(Nc3nc(C(F)(F)F)nc4cccnc34)c2Cl)c1Cl)c1cc2n(n1)CCC[C@@H]2N1CC[C@@H](O)C1 = 7.00 to 8.00
Cc1c(NC(=O)c2cc3n(n2)CCCC3NCC(=O)O)cccc1-c1cccc(-c2nc3c(s2)CCN(C)C3)c1C (centres unmarked) = > 8.00
CC(=O)NCCN[C@H]1CCCn2nc(C(=O)Nc3cccc(-c4cccc(NC(=O)c5ccc(CNCCO)cn5)c4Cl)c3Cl)cc21 = > 8.00

Check the records and state pIC50 for CC(C)c1nc(Nc2cccc(-c3cccc(NC(=O)c4cc5n(n4)CCC[C@@H]5N4CCC(C(=O)O)CC4)c3Cl)c2Cl)c2ncccc2n1 [Compound 297] 6.00 to 7.00

Provide only the value of recorded pIC50 for O=C1CCC2(CN(C3CCCn4nc(C(=O)Nc5cccc(-c6cccc(Nc7nccc8cc(CN9CC[C@@H](O)C9)cnc78)c6Cl)c5Cl)cc43)C2)N1 (some centres unmarked) 7.00 to 8.00

Output pIC50 of Cc1c(Nc2nccc3cc(CN4CC[C@@H](O)C4)cnc23)cccc1-c1cccc(NC(=O)c2cc3n(n2)CCCC3NC[C@@H]2CCC(=O)N2)c1Cl (some centres unmarked) > 8.00

Annotate the compound COc1cc(C(=O)Nc2cccc(-c3cccc(NC(=O)c4cc5n(n4)CCCC5N4CC[C@@H](C(=O)O)C4)c3Cl)c2Cl)cc(F)c1CN1CC[C@@H](O)C1 (some centres unmarked) with its measured pIC50. > 8.00

Output pIC50 of Cc1c(NC(=O)c2cc3n(n2)CCCC3N2CC[C@@H](O)C2)cccc1-c1cccc(NC(=O)c2nc3c(s2)CN(C)CC3)c1C (some centres unmarked) > 8.00

Supply pIC50 value. Item: COc1cc(-c2cccc(-c3cccc(NC(=O)c4cc5n(n4)CCCC5O)c3Cl)c2Cl)cc(F)c1CNCCO (centres unmarked) 7.00 to 8.00

###

Some compounds, each annotated with its measured IC50.
- assayed_system: PD-1/PD-L1 (Homo sapiens, UniProt Q9NZQ7)
- procedure_summary: TR-FRET PD-1/PD-L1 binding inhibition at the molecular level (free proteins)
- condition: Tag1-PD-L1 and Tag2-PD-1 proteins, twelve concentrations from 200 nM, 2 hours at room temperature, read-out: FRET assay (IC50)

Please review the entries below; each comes with its answer.
Cc1c(NC(=O)c2cc3n(n2)CCCC3NC(C)(C)C(=O)O)cccc1-c1cccc(NC(=O)c2nc3c(n2C)CCN(CCC24CCC(C(=O)O)(CC2)C4)C3)c1C (centres unmarked) = < 10 nM
CC(C)(N[C@H]1CCCn2nc(C(=O)Nc3cccc(-c4cccc(Nc5nc(C(F)(F)F)nc6cccnc56)c4Cl)c3Cl)cc21)C(=O)O = 10 to 100 nM
O=C(Nc1cccc(-c2cccc(Nc3nc(C(F)(F)F)nc4cccnc34)c2Cl)c1Cl)c1cc2n(n1)CCC[C@@H]2N1CCC(O)CC1 = 10 to 100 nM
Cc1c(NC(=O)c2cc3n(n2)CCCC3NCC(=O)O)cccc1-c1cccc(Nc2nccc3cc(CN4CC[C@@H](O)C4)cnc23)c1C (some centres unmarked) = < 10 nM
O=C(Nc1cccc(-c2cccc(Nc3nc(C(F)F)nc4cccnc34)c2Cl)c1Cl)c1cc2n(n1)CCC[C@@H]2N1CCC(C(=O)O)CC1 (stereo in doubt) [Compound 290] = 10 to 100 nM

Give recorded IC50. O=C(Nc1cccc(-c2cccc(Nc3nccc4cc(CN5CC[C@@H](O)C5)cnc34)c2Cl)c1Cl)c1cc2n(n1)CCCC2N1CCC(O)CC1 (some centres unmarked) 10 to 100 nM

Return the recorded IC50 value; entry: CC(=O)NCCNC1CCCn2nc(C(=O)Nc3cccc(-c4cccc(NC(=O)c5nc6c(n5C)CCN(CCC57CCC(C(=O)O)(CC5)C7)C6)c4Cl)c3Cl)cc21 (centres unmarked) < 10 nM

Item O=C1CC[C@@H](CNC2CCCn3nc(C(=O)Nc4cccc(-c5cccc(Nc6nccc7cc(CN8CC[C@@H](O)C8)cnc67)c5Cl)c4Cl)cc32)N1 (some centres unmarked) : provide IC50 10 to 100 nM

###

- assayed_system: PD-1/PD-L1 (Homo sapiens, UniProt Q9NZQ7)
- procedure_summary: TR-FRET PD-1/PD-L1 binding inhibition at the molecular level (free proteins)
- condition: Tag1-PD-L1 and Tag2-PD-1 proteins, twelve concentrations from 200 nM, 2 hours at room temperature, read-out: FRET assay (IC50)
observed_property: IC50

Cc1c(NC(=O)c2ccc(CNCCO)cn2)cccc1-c1cccc(NC(=O)c2cc3n(n2)CCCC3O)c1C (centres unmarked) = < 10 nM
O=C(Nc1cccc(-c2cccc(Nc3nccc4nccnc34)c2Cl)c1Cl)c1cc2n(n1)CCC[C@H]2N1CCC(C(=O)O)CC1 = 10 to 100 nM
Cc1c(NC(=O)c2cc3n(n2)CCCC3NC[C@@H]2CCC(=O)N2)cccc1-c1cccc(NC(=O)c2nc3c(n2C)CCN(CCC24CCC(C(=O)O)(CC2)C4)C3)c1C (some centres unmarked) = < 10 nM

Check the records and state IC50 for COc1cc(-c2cccc(-c3cccc(NC(=O)c4cc5n(n4)CCCC5O)c3Cl)c2Cl)cc(F)c1CNC[C@@H]1CCC(=O)N1 (some centres unmarked) 10 to 100 nM

Please indicate IC50 recorded for `O=C(Nc1cccc(-c2cccc(NC(=O)c3cc4n(n3)CCC[C@@H]4N3CC[C@@H](O)C3)c2Cl)c1Cl)c1ccc(CNCCO)cn1` < 10 nM

###

Recorded IC50, one value per entry.
- assayed_system: PD-1/PD-L1 (Homo sapiens, UniProt Q9NZQ7)
- procedure_summary: TR-FRET PD-1/PD-L1 binding inhibition at the molecular level (free proteins)
- condition: Tag1-PD-L1 and Tag2-PD-1 proteins, twelve concentrations from 200 nM, 2 hours at room temperature, read-out: FRET assay (IC50)

Recorded IC50, per entry:
Cc1c(NC(=O)c2cc3n(n2)CCN(CC(=O)O)C3)cccc1-c1cccc(Nc2nc(C(F)F)nc3cc(CN4CC[C@@H](O)C4)cnc23)c1C = < 0.01 µM
Cc1c(NC(=O)c2cc3n(n2)CCCC3NCCO)cccc1-c1cccc(NC(=O)c2nc3c(n2C)CCN(CCC24CCC(C(=O)O)(CC2)C4)C3)c1C (stereo not drawn) = < 0.01 µM
Cc1c(NC(=O)c2cc3n(n2)CCCC3NCCO)cccc1-c1cccc(-c2cc3n(n2)CCCC3N2CC[C@@H](O)C2)c1C (stereo partly drawn) = 0.01 to 0.1 µM
CC(=O)NCCNC1CCCn2nc(-c3cccc(-c4cccc(Nc5nccc6cc(CN7CC[C@@H](O)C7)cnc56)c4Cl)c3Cl)cc21 (stereo partly drawn) = < 0.01 µM
O=C(Nc1cccc(-c2cccc(Nc3nccc4cc(CN5CC(F)C5)cnc34)c2Cl)c1Cl)c1cc2n(n1)CCC[C@H]2N1CCC(C(=O)O)CC1 = 0.01 to 0.1 µM

Identify IC50 associated with the compound `CN[C@H]1CCCn2nc(C(=O)Nc3cccc(-c4cccc(Nc5nccc6cc(CN7CC[C@@H](O)C7)cnc56)c4C)c3C)cc21` < 0.01 µM

In one line, give reported IC50 of the entry `Cc1c(NC(=O)c2cc3n(n2)CCC[C@@H]3NCCO)cccc1-c1cccc(NC(=O)c2cc3n(n2)CCC[C@@H]3NCCO)c1C` . < 0.01 µM

# return recorded IC50 for entry Cc1c(Nc2nccc3cc(CN4CC[C@@H](O)C4)cnc23)cccc1-c1cccc(NC(=O)c2cc3n(n2)CCCC3N2CCC(C(=O)O)CC2)c1Cl (stereo partly drawn) < 0.01 µM

Kindly indicate its recorded IC50. Item: Cc1c(NC(=O)c2cc3n(n2)CCCC3NCCO)cccc1-c1cccc(-c2nc3cc(CN4CC[C@@H](C(=O)O)C4)cc(C#N)c3o2)c1C (stereo partly drawn) < 0.01 µM
